Source: BigSolDB 2.1

assay.setup: in dipropyl ether, 311.05 K
readout.type: solubility (mole fraction)
A bare number is all that is needed in reply.

For the molecule `CC(C)COc1ccccc1B(O)O` , what solubility (mole fraction) is on record?
0.259

###

assay.setup: in 3-pentanone, 300.65 K
readout.type: solubility (mole fraction)

For the compound `CC(C)COc1ccccc1B(O)O` , what solubility (mole fraction) is on record?
0.306

###

assay.setup: in 3-pentanone, 318.15 K
readout.type: solubility (mole fraction)
A bare number is all that is needed in reply.

For the molecule `CC(C)COc1ccccc1B(O)O` , what solubility (mole fraction) is on record?
0.407

###

assay.setup: in dipropyl ether, 304.35 K
readout.type: solubility (mole fraction)
A bare number is all that is needed in reply.

For the compound `CC(C)COc1ccccc1B(O)O` , what solubility (mole fraction) is on record?
0.209
